Data provenance: the RNAGym collection of RNA variant scans (doi:10.1038/nmeth.2970)

B1: NELF-E aptamer (parent)
chain: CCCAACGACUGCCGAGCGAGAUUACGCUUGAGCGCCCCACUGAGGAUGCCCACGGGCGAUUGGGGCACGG

# Variants of: B1
# method.description: HiTS-RAP
# run.parameters: with NELF-E (Drosophila)
pKd: −log10 of the molar value.
measure: pKd

1. U10C A19G	8.31
2. U10G G54A	7.92
3. C13U G26A	8.35
4. U61A A67G	7.56
5. C9G A15G	8.18
6. A5G U23G	8.21
7. C6G U22G	8.29
8. G7U G64U	8.14
9. G65U	8.22
10. C9G A24G	8.23
11. U10C C12G	8.23
12. U22G G65A	8.29
13. A4C G14U	8.12
14. C13G U22G	8.28
15. C12U U23G	8.30
16. C12G G54A	7.74
17. G65U A67U	8.07
18. A4U G63A	7.87
19. G7U A31G	8.13
20. G7U A43G	7.24
21. G11A G16U	8.18
22. A8U A46U	7.37
23. C1G	8.31
24. C9A U10G	8.26
25. A15G A24G	8.21
26. G7U A39U	7.57
27. A5U G42A	7.17
28. U41G A52U	7.79
29. C53G	8.29
30. C13G G20U	8.19
31. U10G C51A	8.01
32. C17G A67G	8.24
33. A8G U28G	8.21
34. A8U G30A	8.26
35. A8G G11U	8.17
36. A5C G16U	8.09
37. C9U C12G	8.16
38. A5G C53U	8.34
39. A8G U10G	8.26
40. A4U U28C	8.13
41. C6U A52U	7.64
42. A15U U60C	7.97
43. C13G G55U	8.13
44. C12G G26A	8.38
45. C6G A39U	7.54
46. U22G G56A	8.06
